Assignment: determine reported Ki for the given compounds.
Molecular target: Prothrombin (Homo sapiens)
Just the number please, in nM, no unit attached.

**Q:** For the compound shown here, CC1CNc2c(cccc2S(=O)(=O)N[C@@H](Cc2nc3ccccc3s2)C(=O)N2CCC(CCO)CC2)C1 (stereo in doubt; 33) , give the reported Ki.
**A:** 118

**Q:** Let us now turn to CC1(C)CNc2c(cccc2S(=O)(=O)NC(Cc2nc(-c3ccccc3)cs2)C(=O)N2CCC(CCO)CC2)C1 (centres undefined)
**A:** 3280

**Q:** Input Cc1csc(CC(NS(=O)(=O)c2cccc3c2NCC(C)(C)C3)C(=O)N2CCC(CCO)CC2)n1 (centres undefined)
**A:** 2190

**Q:** Ok, now CCC1CCN(C(=O)C(Cc2nc3ccccc3s2)NS(=O)(=O)c2cccc3c2NCC(C)(C)C3)CC1 (centres undefined)
**A:** 248

**Q:** Can you handle CC1(C)CNc2c(cccc2S(=O)(=O)NC(Cc2nc3ccncc3s2)C(=O)N2CCC(CCF)CC2)C1 (centres undefined) next?
**A:** 810

**Q:** Please answer likewise for CC1CNc2c(cccc2S(=O)(=O)N[C@@H](CCc2ccccc2)C(=O)N2CCC(CCO)CC2)C1 (some centres undefined)
**A:** 47300

**Q:** Another compound to check: CC1CNc2c(cccc2S(=O)(=O)N[C@@H](Cc2nc3ccccc3s2)C(=O)N2CCC(CCO)CC2)C1 (stereo in doubt; 23)
**A:** 118

**Q:** Let us now turn to CC1(C)CNc2c(cccc2S(=O)(=O)N[C@@H](CSCCCN)C(=O)N2CCC(CCO)CC2)C1
**A:** 280

**Q:** Lookup CC1(C)CNc2c(cccc2S(=O)(=O)N[C@@H](CSCCCN)C(=O)N2CCC(CCF)CC2)C1
**A:** 126

---

Assignment: determine reported pKi for the given compounds.
Target: Plasminogen (Homo sapiens)
Sequence (P00747 97-580 limits assumed): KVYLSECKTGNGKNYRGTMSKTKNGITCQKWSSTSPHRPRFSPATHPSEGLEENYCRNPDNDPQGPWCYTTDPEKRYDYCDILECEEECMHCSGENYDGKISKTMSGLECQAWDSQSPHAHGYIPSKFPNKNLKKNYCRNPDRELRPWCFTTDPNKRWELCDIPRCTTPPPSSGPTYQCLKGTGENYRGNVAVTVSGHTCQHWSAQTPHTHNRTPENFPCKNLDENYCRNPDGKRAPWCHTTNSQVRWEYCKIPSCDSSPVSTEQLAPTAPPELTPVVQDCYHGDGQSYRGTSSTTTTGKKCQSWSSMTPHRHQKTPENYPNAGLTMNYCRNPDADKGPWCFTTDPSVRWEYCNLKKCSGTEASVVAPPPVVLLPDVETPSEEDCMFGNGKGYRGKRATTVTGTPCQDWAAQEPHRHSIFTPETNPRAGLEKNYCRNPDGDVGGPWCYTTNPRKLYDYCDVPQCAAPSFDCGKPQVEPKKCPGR
Sequence (P00747 581-810 limits assumed): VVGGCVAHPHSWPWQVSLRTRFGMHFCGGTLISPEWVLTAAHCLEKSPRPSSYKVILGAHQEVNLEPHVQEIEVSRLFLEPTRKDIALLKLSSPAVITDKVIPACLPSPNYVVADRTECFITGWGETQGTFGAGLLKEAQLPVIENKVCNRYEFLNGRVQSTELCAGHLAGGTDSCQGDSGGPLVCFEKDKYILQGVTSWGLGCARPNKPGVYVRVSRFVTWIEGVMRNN
Experiment: Compound was evaluated for its inhibitory activity against plasmin
# pKi = -log10(concentration in molar units)

**Q:** Dear colleague, I am looking for the recorded pKi of the following compound: CCC1CCN(C(=O)C(Cc2nc3ccccc3s2)NS(=O)(=O)c2cccc3c2NCC(C)(C)C3)CC1 (centres undefined)
**A:** 3.62

**Q:** Now consider CC1(C)CNc2c(cccc2S(=O)(=O)N[C@@H](CSCCCN)C(=O)N2CCC(CCF)CC2)C1 .
**A:** 5.40

**Q:** Repeat for the following compound: CC1CNc2c(cccc2S(=O)(=O)N[C@@H](Cc2nc3ccccc3s2)C(=O)N2CCC(CCO)CC2)C1 (stereo in doubt; 33)
**A:** 3.96

**Q:** Lookup CC1(C)CNc2c(cccc2S(=O)(=O)N[C@@H](CSCCCN)C(=O)N2CCC(CCO)CC2)C1
**A:** 5.21

---

Recorded below: pKi, system Coagulation factor X (Homo sapiens).
Entry type: numeric. Quantity: pKi, the -log10 of concentration in molar units.

**Q:** Tell me the measured pKi of CC1(C)CNc2c(cccc2S(=O)(=O)N[C@@H](CSCCCN)C(=O)N2CCC(CCF)CC2)C1 , please.
**A:** 4.06

**Q:** Param item: CC1(C)CNc2c(cccc2S(=O)(=O)N[C@@H](CSCCCN)C(=O)N2CCC(CCO)CC2)C1
**A:** 4.06

**Q:** Do the same for CC1CNc2c(cccc2S(=O)(=O)N[C@@H](Cc2nc3ccccc3s2)C(=O)N2CCC(CCO)CC2)C1 (stereo in doubt; 33) please
**A:** 4.35

**Q:** Here is the next compound: CCC1CCN(C(=O)C(Cc2nc3ccccc3s2)NS(=O)(=O)c2cccc3c2NCC(C)(C)C3)CC1 (centres undefined)
**A:** 4.04

---

Molecular target: Kallikrein-1 (Homo sapiens)
Sequence (P06870 whole entry): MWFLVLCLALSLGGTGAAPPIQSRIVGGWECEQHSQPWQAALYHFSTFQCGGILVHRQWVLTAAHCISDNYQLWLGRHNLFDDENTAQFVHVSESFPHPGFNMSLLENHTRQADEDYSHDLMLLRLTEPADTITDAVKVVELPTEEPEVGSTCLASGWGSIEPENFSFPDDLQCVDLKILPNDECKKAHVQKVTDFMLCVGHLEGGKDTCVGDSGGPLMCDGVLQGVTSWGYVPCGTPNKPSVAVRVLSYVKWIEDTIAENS
Assay: Compound was evaluated for its inhibitory activity against kallikrein
pKi: −log10 of the molar value.
Consider the following compounds; for each one, report its pKi.

**Q:** Param item = CC1CNc2c(cccc2S(=O)(=O)N[C@@H](Cc2nc3ccccc3s2)C(=O)N2CCC(CCO)CC2)C1 (stereo in doubt; 33) ; retrieve measured pKi.
**A:** < 4.35

**Q:** Item: CC1(C)CNc2c(cccc2S(=O)(=O)N[C@@H](CSCCCN)C(=O)N2CCC(CCO)CC2)C1
**A:** < 4.06

**Q:** Try this compound next: CCC1CCN(C(=O)C(Cc2nc3ccccc3s2)NS(=O)(=O)c2cccc3c2NCC(C)(C)C3)CC1 (centres undefined)
**A:** 4.04

**Q:** Repeat for the following compound: CC1(C)CNc2c(cccc2S(=O)(=O)N[C@@H](CSCCCN)C(=O)N2CCC(CCF)CC2)C1
**A:** < 4.06

---

Provide the recorded Ki for the entries that follow.
Target: Serine protease 1 (Homo sapiens)
Sequence (P07477 whole entry): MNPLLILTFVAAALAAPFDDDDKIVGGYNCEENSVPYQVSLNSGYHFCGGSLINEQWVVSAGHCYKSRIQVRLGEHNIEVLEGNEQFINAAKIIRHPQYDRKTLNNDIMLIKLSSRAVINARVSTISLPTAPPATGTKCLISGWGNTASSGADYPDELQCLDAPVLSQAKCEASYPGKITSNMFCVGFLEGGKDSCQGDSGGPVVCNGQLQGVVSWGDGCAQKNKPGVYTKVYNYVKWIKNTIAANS
Dear colleague, please return just the value in µM, with no unit written.

**Q:** Param readout = Ki; param system = Serine protease 1 (Homo sapiens); param query = CC1(C)CNc2c(cccc2S(=O)(=O)N[C@@H](CSCCCN)C(=O)N2CCC(CCO)CC2)C1 ; response: value
**A:** 1.78

**Q:** Please give the result for CCC1CCN(C(=O)C(Cc2nc3ccccc3s2)NS(=O)(=O)c2cccc3c2NCC(C)(C)C3)CC1 (centres undefined) too.
**A:** 260

**Q:** What about this compound? CC1(C)CNc2c(cccc2S(=O)(=O)N[C@@H](CSCCCN)C(=O)N2CCC(CCF)CC2)C1
**A:** 1.32

**Q:** Follow-up entry: CC1CNc2c(cccc2S(=O)(=O)N[C@@H](Cc2nc3ccccc3s2)C(=O)N2CCC(CCO)CC2)C1 (stereo in doubt; 33)
**A:** 126

All figures here come from ChEMBL document CHEMBL1133232.
